Recorded values, source the supplement of paper PMC12042874.

Assay: amyloid nucleation score (Sup35N fusion, yeast selection) (log enrichment); library NNK2; higher = more nucleation; inactive = no reads after selection;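 also: zero at mode of non-aggregating sequences after 7 days selection at 30°C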
Measured metric: amyloid nucleation score
Numbers only.

Completed entries (count: 4):
- SSLSGYGSYGLLPRWLRLVT: 1.81
- WDSQESITKS: -0.172
- CLLLLCNPRISAE: -0.582
- CYRHSERYRTSSLLSWERGP: 0.783

Batch lookup, amyloid nucleation score per entry.
1. KTLTVFAISYC
2. FFYYMRSIT
3. ARMITWGRNMILTPSPMRHK
4. CNTLLTFNYNAYVIEVM
5. FTLDNMSLQTRTLMRYE
6. GQTLTRRKVKGRQRELTSGQ

[0.482, -1.9, -0.783, 0.839, -0.863, 0.967]

Batch lookup, amyloid nucleation score per entry.
1. KHSIMRRKRGFPATKR
2. LRVYKTNTRQDLKLDTIMVG
3. NCGLCGILHHL
4. RCSDVTDFNKM

1: 0.722; 2: -1.14; 3: 8.14; 4: 0.122
